Answer each item with its documented Emax.
Target: SMARCA2 (Homo sapiens, UniProt P51531)
Construct: endogenous in cells
Sequence (P51531 whole entry): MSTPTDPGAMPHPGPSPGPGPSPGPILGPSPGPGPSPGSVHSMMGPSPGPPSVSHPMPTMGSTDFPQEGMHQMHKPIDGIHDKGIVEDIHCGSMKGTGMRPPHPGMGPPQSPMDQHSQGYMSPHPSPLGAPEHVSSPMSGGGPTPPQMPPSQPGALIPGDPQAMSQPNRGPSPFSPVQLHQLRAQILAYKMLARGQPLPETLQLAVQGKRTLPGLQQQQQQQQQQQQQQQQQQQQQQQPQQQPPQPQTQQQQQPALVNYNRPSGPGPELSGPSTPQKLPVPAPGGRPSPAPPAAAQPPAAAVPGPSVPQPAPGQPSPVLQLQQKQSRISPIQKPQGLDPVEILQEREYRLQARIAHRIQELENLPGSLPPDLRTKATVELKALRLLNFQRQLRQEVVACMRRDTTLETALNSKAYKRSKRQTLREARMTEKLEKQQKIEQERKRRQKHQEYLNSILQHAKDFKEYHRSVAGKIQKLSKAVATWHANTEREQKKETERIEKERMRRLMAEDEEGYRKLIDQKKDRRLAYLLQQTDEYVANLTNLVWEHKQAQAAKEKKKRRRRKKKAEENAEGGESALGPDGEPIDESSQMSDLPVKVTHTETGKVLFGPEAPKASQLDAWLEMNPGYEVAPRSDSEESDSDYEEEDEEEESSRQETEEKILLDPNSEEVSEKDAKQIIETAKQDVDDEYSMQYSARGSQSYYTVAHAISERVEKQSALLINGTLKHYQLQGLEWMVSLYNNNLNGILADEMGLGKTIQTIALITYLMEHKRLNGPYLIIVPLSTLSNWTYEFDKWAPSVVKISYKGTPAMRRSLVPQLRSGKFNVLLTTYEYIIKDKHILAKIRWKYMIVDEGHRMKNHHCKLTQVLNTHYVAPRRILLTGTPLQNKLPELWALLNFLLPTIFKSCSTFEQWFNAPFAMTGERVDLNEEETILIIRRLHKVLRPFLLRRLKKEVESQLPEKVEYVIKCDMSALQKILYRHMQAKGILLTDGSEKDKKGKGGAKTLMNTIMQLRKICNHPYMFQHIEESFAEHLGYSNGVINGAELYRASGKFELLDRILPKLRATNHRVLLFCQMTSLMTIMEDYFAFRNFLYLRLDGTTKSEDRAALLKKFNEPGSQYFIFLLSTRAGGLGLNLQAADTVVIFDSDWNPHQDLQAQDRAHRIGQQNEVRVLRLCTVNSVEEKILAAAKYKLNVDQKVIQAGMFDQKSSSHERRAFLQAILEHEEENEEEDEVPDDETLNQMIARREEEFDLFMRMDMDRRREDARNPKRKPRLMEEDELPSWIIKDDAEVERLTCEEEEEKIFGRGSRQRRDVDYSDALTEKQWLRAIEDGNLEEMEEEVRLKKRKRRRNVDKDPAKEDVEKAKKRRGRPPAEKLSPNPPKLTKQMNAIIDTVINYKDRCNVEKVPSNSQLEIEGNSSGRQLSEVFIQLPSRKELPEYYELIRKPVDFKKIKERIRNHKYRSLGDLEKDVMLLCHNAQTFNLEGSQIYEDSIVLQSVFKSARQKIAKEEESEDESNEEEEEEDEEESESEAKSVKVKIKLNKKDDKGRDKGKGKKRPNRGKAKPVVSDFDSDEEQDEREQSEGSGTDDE
Experiment: SMARCA2 HiBiT degradation assay (cellular)
Type: cell-based
Conditions: A549, Emax = amount of residual protein remaining in the cell following compound treatment
Express it in %; write the number only.

Incoming: Tell me the measured Emax of Cc1ncsc1-c1ccc([C@H](C)NC(=O)[C@@H]2C[C@@H](O)CN2C(=O)[C@@H](NC(=O)CCOCCOCCOCCC(=O)N2CCN(c3ccc(N4CCCC(Oc5cc(-c6ccccc6O)nnc5N)C4)cc3)CC2)C(C)(C)C)cc1 (mixture of isomers) [Example 46] , please.
Outgoing: 51

Incoming: Then Cc1ncsc1-c1ccc(CNC(=O)[C@@H]2C[C@H](O)CN2C(=O)[C@@H](NC(=O)CCCCCC(=O)N2CCC(Cc3cccc(N4C5CCC4CN(c4cc(-c6ccccc6O)nnc4N)C5)c3)CC2)C(C)(C)C)cc1 [Example 14] ?
Outgoing: 38

Incoming: Then Cc1ncsc1-c1ccc(CNC(=O)[C@@H]2C[C@@H](O)CN2C(=O)[C@@H](NC(=O)CCCCCC(=O)N2CCN(Cc3cccc(C#Cc4cc(-c5ccccc5O)nnc4N)c3)CC2)C(C)(C)C)cc1 [Example 61] ?
Outgoing: 59

Incoming: Then Cc1ncsc1-c1ccc([C@H](C)NC(=O)[C@@H]2C[C@@H](O)CN2C(=O)[C@@H](NC(=O)CCCCCC(=O)N(C)CCCN(C)c2ccc(CCOc3cc(-c4ccccc4O)nnc3N)cc2)C(C)(C)C)cc1 (racemic) [Example 26] ?
Outgoing: 60

Incoming: Then Cc1ncsc1-c1ccc([C@H](C)NC(=O)[C@@H]2C[C@@H](O)CN2C(=O)[C@@H](NC(=O)CCCCCCCCC(=O)N2CCN(Cc3cccc(C(C)Oc4cc(-c5ccccc5O)nnc4N)c3)CC2)C(C)(C)C)cc1 (mixture of isomers) [Example 82] ?
Outgoing: 62

Incoming: Then Cc1ncsc1-c1ccc(CNC(=O)[C@@H]2C[C@@H](O)CN2C(=O)[C@@H](NC(=O)CCCCCCCCC(=O)NCC(COc2cc(-c3ccccc3O)nnc2N)c2ccccc2)C(C)(C)C)cc1 (some centres unmarked) [Example 50] ?
Outgoing: 63

Incoming: Then Cc1ncsc1-c1ccc(CNC(=O)[C@@H]2C[C@@H](O)CN2C(=O)[C@H](C(C)C)N2Cc3ccccc3C2=O)c(OCCCCCCCCCCC(=O)N2CCN(CCOc3cccc(N4C5CCC4CN(c4cc(-c6ccccc6O)nnc4N)C5)c3)CC2)c1 [Example 30] ?
Outgoing: 65

Incoming: Then Cc1ncsc1-c1ccc(CNC(=O)[C@@H]2C[C@@H](O)CN2C(=O)[C@@H](NC(=O)CCCCCCCCCC(=O)N2CCN(CCOc3cccc(N4CC5CCC(C4)N5c4cc(-c5cc(F)ccc5O)nnc4N)c3)CC2)C(C)(C)C)cc1 [Example 110] ?
Outgoing: 76
